Each recorded value in this set is attributed to patent US20120129843A1.

Molecular target: proMMP9(20-445;ΔFnII) (SEQ ID NO:6) (Homo sapiens, UniProt P14780, DEL216-390)
Construct: start methionine (N)
Sequence (P14780 with tags, fused parts or gaps DEL216-390): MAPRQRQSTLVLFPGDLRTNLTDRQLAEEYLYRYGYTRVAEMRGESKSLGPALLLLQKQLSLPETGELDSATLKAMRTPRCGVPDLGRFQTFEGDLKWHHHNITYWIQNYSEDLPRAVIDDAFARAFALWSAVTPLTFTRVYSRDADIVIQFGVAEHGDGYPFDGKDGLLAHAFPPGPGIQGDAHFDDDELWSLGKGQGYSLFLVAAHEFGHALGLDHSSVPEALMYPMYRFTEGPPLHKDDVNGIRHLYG
Experiment: ThermoFluor binding assay with proMMP9(20-445;ΔFnII)
pKd: −log10 of the molar value.
# pKd >= 6 gives criterion met, anything below gives criterion not met

Test whether the molecule COC1CCN(c2ccc(-c3csc(Nc4cc(S(N)(=O)=O)ccc4OC(C)C)n3)cn2)CC1 [Example 78] records pKd of 6 or higher.
criterion met

Determine whether this molecule has pKd no lower than 6: COCCN(C)c1ccc(-c2csc(Nc3cc(S(N)(=O)=O)ccc3OC(C)C)n2)cn1 [Example 74]
criterion met

// inclusive: pKd at least 6? input: Cc1nc(C(F)(F)F)ccc1-c1csc(Nc2cc(C(N)=O)ccc2OC(C)C)n1 [Example 24]
criterion not met

Could you verify whether the entry CC(C)Oc1ccc(S(N)(=O)=O)cc1Nc1nc(-c2ccc(C(=O)N3CCC(N(C)C)CC3)nc2)cs1 [Example 48] shows pKd of no less than 6?
criterion not met

Reported pKd at or above 6? CC(C)Oc1ccc(S(N)(=O)=O)cc1Nc1nc(-c2ccc(C(=O)NC3CCN(C(C)C)CC3)nc2)cs1 [Example 88]
criterion met

Textbook exercise: given the entry COc1ccc(-c2csc(Nc3cc(C(N)=O)ccc3OC(C)C)n2)cn1 [Example 25] , state whether its pKd is greater than or equal to 6.
criterion met

---

Target: full-length proMMP9(1-707) (SEQ ID NO:1), activation by catalytic MMP3 (Homo sapiens, UniProt P14780, R574P)
Construct: E. coli (MMP3)
Test: proMMP9/MMP3 P126 Activation Assay
reported_property: pIC50
On this scale, pIC50 is minus log10 of a concentration expressed in M (mol/L).

Any idea what pIC50 was measured for CC(C)Oc1ccc(S(N)(=O)=O)cc1Nc1nc(-c2ccc(NCCCn3ccnc3)nc2)cs1 ?
6.82

Consider the compound CC(C)Oc1ccc(C(N)=O)cc1Nc1nc(-c2ccc(Br)nc2)cs1 and give its measured pIC50.
6.19

Would you mind telling me what pIC50 value was observed for CC(C)Oc1ccc(S(N)(=O)=O)cc1Nc1nc(-c2ccc(C(=O)NCCN(C)C)nc2)cs1 ?
6.80

Item under review: CC(C)Oc1ccc(S(N)(=O)=O)cc1Nc1nc(-c2ccc(C(=O)N3CCCN(C)CC3)nc2)cs1 . Reported pIC50?
6.00

For the compound shown here, CC(C)Oc1ccc(S(N)(=O)=O)cc1Nc1nc(-c2ccc(C(=O)N3CCN(C(C)C)CC3)nc2)cs1 , give the reported pIC50.
5.74

Fill in: pIC50 of CC(C)Oc1ccc(S(N)(=O)=O)cc1Nc1nc(-c2ccc(N(C)CCN(C)C)nc2)cs1 is ___
6.70

# pIC50 lookup, item CC1CN(c2ccc(-c3csc(Nc4cc(S(N)(=O)=O)ccc4OC(C)C)n3)cn2)CC(C)N1 (centres unmarked)
6.89

# query: pIC50 of entry CC(C)Oc1ccc(C(N)=O)cc1Nc1nc(-c2ccc(N3CCN(C)CC3)nc2)cs1
6.82

---

Molecular target: proMMP9(20-445;ΔFnII) (SEQ ID NO:6) (Homo sapiens, UniProt P14780, DEL216-390)
Construct: start methionine (N)
Experiment: ThermoFluor binding assay with proMMP9(20-445;ΔFnII)
reported_property: pKd
Scale: negative log10 of molar concentration, which is what pKd denotes.

Report pKd for CC1CCN(c2ccc(-c3csc(Nc4cc(S(N)(=O)=O)ccc4OC(C)C)n3)cn2)CC1 please.
5.72

Returns the measured pKd for the input molecule. Input: CC1CN(c2ccc(-c3csc(Nc4cc(S(N)(=O)=O)ccc4OC(C)C)n3)cn2)CC(C)N1 (centres unmarked)
7.15

I would be grateful if you could share the reported pKd for CC(C)Oc1ccc(C(N)=O)cc1Nc1nc(-c2ccc(Br)nc2)cs1 .
6.47

// pKd lookup, key: CC(C)CCNC(=O)c1ccc(-c2csc(Nc3cc(S(N)(=O)=O)ccc3OC(C)C)n2)cn1
5.34

State the recorded pKd for this entry: CC(C)Oc1ccc(S(N)(=O)=O)cc1Nc1nc(-c2ccc(C(=O)N(C)CCN(C)C)nc2)cs1
6.05

Look up pKd for this molecule: CC(C)Oc1ccc(S(C)(=O)=O)cc1Nc1nc(-c2cccnc2)cs1
6.18

Which pKd value is on record for CC(C)Oc1ccc(S(N)(=O)=O)cc1Nc1nc(-c2ccc(C(=O)NC3CC(C)(C)N(C)C(C)(C)C3)nc2)cs1 ?
6.60

Item CC(C)Oc1ccc(C(N)=O)cc1Nc1nc(-c2ccccn2)cs1 has what recorded pKd?
6.68

---

Biological target: proMMP9(20-445;ΔFnII) (SEQ ID NO:6) (Homo sapiens, UniProt P14780, DEL216-390)
Construct: start methionine (N)
Experiment: ThermoFluor binding assay with proMMP9(20-445;ΔFnII)
reported_property: Kd (µM)
// return numeric value only (unit: µM, not printed)

Param item = COCCCN(C)c1ccc(-c2csc(Nc3cc(S(N)(=O)=O)ccc3OC(C)C)n2)cn1 ; retrieve measured Kd.
0.45

Which Kd value belongs to CC(C)Oc1ccc(S(N)(=O)=O)cc1Nc1nc(-c2ccnc(N3CCN(C)CC3)c2)cs1 ?
0.19

Could you tell me which Kd is on file for CN1CCN(c2ccc(-c3csc(Nc4cc(C(N)=O)ccc4OC(F)(F)F)n3)cn2)CC1 ?
0.11

Query (compound): CC(C)Oc1ccc(C(N)=O)cc1Nc1nc(-c2ccc(Cl)nc2)cs1 ; field requested: Kd
0.32

---

Target: proMMP9(20-445;ΔFnII) (SEQ ID NO:6) (Homo sapiens, UniProt P14780, DEL216-390)
Construct: start methionine (N)
Sequence (P14780 with tags, fused parts or gaps DEL216-390): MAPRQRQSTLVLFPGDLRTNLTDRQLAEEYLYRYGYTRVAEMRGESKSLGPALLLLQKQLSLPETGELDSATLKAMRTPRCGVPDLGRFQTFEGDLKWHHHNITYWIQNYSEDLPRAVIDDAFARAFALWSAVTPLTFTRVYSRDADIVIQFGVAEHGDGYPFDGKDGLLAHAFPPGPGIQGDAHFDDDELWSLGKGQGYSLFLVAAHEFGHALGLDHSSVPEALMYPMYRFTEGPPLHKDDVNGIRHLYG
Test: ThermoFluor binding assay with proMMP9(20-445;ΔFnII)
reported_property: pKd
Give only the number. pKd is defined as minus log10 of concentration in molar units.

Would you mind telling me what pKd value was observed for CC(C)Oc1ccc(S(N)(=O)=O)cc1Nc1nc(-c2ccc(C(=O)N3CCCN(C)CC3)nc2)cs1 ?
6.08

Which pKd is reported for this molecule? CC(C)Oc1ccc(S(N)(=O)=O)cc1Nc1nc(-c2ccc(C(=O)N3CCN(C(=O)OC(C)(C)C)CC3)nc2)cs1
6.02

# input molecule: CC(C)Oc1ccc(C(N)=O)cc1Nc1nc(-c2cncc(Br)c2)cs1 ; wanted: its pKd
5.89

---

Target: proMMP9(20-445;ΔFnII) (SEQ ID NO:6) (Homo sapiens, UniProt P14780, DEL216-390)
Construct: start methionine (N)
Sequence (P14780 with tags, fused parts or gaps DEL216-390): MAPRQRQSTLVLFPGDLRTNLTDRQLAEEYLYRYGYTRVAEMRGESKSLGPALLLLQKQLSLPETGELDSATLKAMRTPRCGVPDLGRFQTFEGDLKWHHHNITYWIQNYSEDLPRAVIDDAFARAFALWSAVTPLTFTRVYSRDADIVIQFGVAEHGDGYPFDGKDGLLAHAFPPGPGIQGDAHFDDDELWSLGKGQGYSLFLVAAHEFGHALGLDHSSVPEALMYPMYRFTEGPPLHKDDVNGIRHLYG
Assay: ThermoFluor binding assay with proMMP9(20-445;ΔFnII)
Protocol: The ThermoFluor® (TF) assay is a 384-well plate-based binding assay that measures thermal stability of proteins (Biomol Screen 2001, 6, 429-40; Biochemistry 2005, 44, 5258-66). The experiments were carried out using instruments available from Johnson & Johnson Pharmaceutical Research & Development, LLC. TF dye used in all experiments was […] (1,8-ANS) (Invitrogen: A-47). […]
For each record, write down the corresponding Kd.
Give the value, in units of nM, as a plain number.

State its Kd on proMMP9(20-445;ΔFnII) (SEQ ID NO:6) (Homo sapiens, UniProt P14780, DEL216-390): CCOC(=O)CCNC(=O)c1ccc(-c2csc(Nc3cc(S(N)(=O)=O)ccc3OC(C)C)n2)cn1
360

Lookup: Kd / proMMP9(20-445;ΔFnII) (SEQ ID NO:6) (Homo sapiens, UniProt P14780, DEL216-390) / CC(C)Oc1ccc(C(N)=O)cc1Nc1nc(-c2ccc(N3CCN(C)CC3)nc2)cs1
39

Fill in the recorded Kd for this compound, with proMMP9(20-445;ΔFnII) (SEQ ID NO:6) (Homo sapiens, UniProt P14780, DEL216-390) as test system: CC(C)Oc1ccc(S(N)(=O)=O)cc1Nc1nc(-c2ccc(C3=CCNCC3)nc2)cs1
110

What is its Kd for proMMP9(20-445;ΔFnII) (SEQ ID NO:6) (Homo sapiens, UniProt P14780, DEL216-390)? Entry: CC(C)Oc1ccc(S(N)(=O)=O)cc1Nc1nc(-c2ccc(C(=O)O)nc2)cs1
470

# returns recorded Kd (system: proMMP9(20-445;ΔFnII) (SEQ ID NO:6) (Homo sapiens, UniProt P14780, DEL216-390)) for CCOc1ccc(-c2ncco2)cc1Nc1nc(-c2cccnc2)cs1
26000

Which measured Kd belongs to CC(C)Oc1ccc(S(N)(=O)=O)cc1Nc1nc(-c2ccc(N3CCNC(C(N)=O)C3)nc2)cs1 (stereo not drawn) , tested on proMMP9(20-445;ΔFnII) (SEQ ID NO:6) (Homo sapiens, UniProt P14780, DEL216-390)?
120

Kd of CC(C)Oc1ccc(S(N)(=O)=O)cc1Nc1nc(-c2ccnc(Cl)c2)cs1 [Intermediate 9] on proMMP9(20-445;ΔFnII) (SEQ ID NO:6) (Homo sapiens, UniProt P14780, DEL216-390)?
96000

Form field - read-out: Kd; system: proMMP9(20-445;ΔFnII) (SEQ ID NO:6) (Homo sapiens, UniProt P14780, DEL216-390); submitted item: CC(C)Oc1ccc(S(N)(=O)=O)cc1Nc1nc(-c2ccc(N(C)CCN(C)C)nc2)cs1
120

I'm curious: which Kd was measured for COc1ccc(S(N)(=O)=O)cc1Nc1nc(-c2ccc(N3CCN(C)CC3)nc2)cs1 tested on proMMP9(20-445;ΔFnII) (SEQ ID NO:6) (Homo sapiens, UniProt P14780, DEL216-390)?
930
